Biological target: NK2-receptor (Cavia porcellus)
Construct: from tissue; host or cells: whole animal (Pirbright-White guinea pigs), in vivo
Sequence (Q64077 whole entry): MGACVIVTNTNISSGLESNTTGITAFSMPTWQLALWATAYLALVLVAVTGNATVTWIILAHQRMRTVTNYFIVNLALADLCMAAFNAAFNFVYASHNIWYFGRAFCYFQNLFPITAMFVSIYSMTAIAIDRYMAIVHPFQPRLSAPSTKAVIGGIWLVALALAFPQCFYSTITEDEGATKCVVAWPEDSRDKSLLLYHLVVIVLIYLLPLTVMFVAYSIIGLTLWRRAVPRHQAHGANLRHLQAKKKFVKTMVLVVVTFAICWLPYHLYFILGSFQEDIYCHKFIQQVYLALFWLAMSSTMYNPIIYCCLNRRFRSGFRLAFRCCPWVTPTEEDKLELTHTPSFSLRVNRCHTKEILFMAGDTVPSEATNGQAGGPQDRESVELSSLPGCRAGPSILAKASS
Assay: NK2-receptor-antagonistic effectiveness in vivo, NKA-induced late hypotension, bronchoconstriction and colonic pressure in anaesthetised guinea pigs
Conditions: guinea pig, NKA 200 pmol/animal i.v., intravenous administration
Please assign Not fulfilled whenever ED50 iv after 1 min (cumulative), NK2 (bronchoconstriction) is at or above 0.07 µmol/kg, and Fulfilled whenever it is below.

1. CN(C)C(=O)C1(N2CCCCC2)CCN(CC[C@H](CN(C)C(=O)c2ccc(F)c(F)c2F)c2ccc(Cl)c(Cl)c2)CC1 [compound 16]	Not fulfilled
2. CN(C)C(=O)C1(N2CCCCC2)CCN(CC[C@H](CN(C)C(=O)c2ccc(F)c(Cl)c2)c2ccc(Cl)c(Cl)c2)CC1 [compound 8]	Not fulfilled
3. CN(C)C(=O)C1(N2CCCCC2)CCN(CC[C@H](CN(C)C(=O)c2ccc(F)cc2)c2ccc(Cl)c(Cl)c2)CC1 [compound 4]	Fulfilled
4. CN(C)C(=O)C1(N2CCCCC2)CCN(CC[C@H](CN(C)C(=O)c2cc(C#N)c3ccccc3c2)c2ccc(Cl)c(Cl)c2)CC1 [compound 11]	Fulfilled
5. CN(C)C(=O)C1(N2CCCCC2)CCN(CC[C@H](CN(C)C(=O)c2cc(F)ccc2F)c2ccc(Cl)c(Cl)c2)CC1 [compound 15]	Not fulfilled
6. CN(C)C(=O)C1(N2CCCCC2)CCN(CC[C@H](CN(C)C(=O)c2cc(F)cc(F)c2)c2ccc(Cl)c(Cl)c2)CC1 [compound 9]	Fulfilled
7. CN(C)C(=O)C1(N2CCCCC2)CCN(CC[C@H](CN(C)C(=O)C2CCCCC2)c2ccc(Cl)c(Cl)c2)CC1 [compound 3]	Not fulfilled
8. CN(C)C(=O)C1(N2CCCCC2)CCN(CC[C@H](CN(C)C(=O)c2ccc(F)c(F)c2)c2ccc(Cl)c(Cl)c2)CC1 [compound 14]	Not fulfilled
